Listing of recorded fold change (FC) by entry.
Molecular target: Protein cereblon/Apoptosis regulator Bcl-2 (Homo sapiens, UniProt P10415+Q96SW2)
Sequence (P10415 whole entry, looked up): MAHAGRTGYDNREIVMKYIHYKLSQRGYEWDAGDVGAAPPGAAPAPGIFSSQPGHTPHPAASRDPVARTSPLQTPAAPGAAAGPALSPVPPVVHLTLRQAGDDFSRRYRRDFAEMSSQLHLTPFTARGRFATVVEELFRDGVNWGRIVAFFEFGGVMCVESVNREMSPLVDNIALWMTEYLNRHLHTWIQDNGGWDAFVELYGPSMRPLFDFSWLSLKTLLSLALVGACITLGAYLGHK
Sequence (Q96SW2 whole entry, looked up): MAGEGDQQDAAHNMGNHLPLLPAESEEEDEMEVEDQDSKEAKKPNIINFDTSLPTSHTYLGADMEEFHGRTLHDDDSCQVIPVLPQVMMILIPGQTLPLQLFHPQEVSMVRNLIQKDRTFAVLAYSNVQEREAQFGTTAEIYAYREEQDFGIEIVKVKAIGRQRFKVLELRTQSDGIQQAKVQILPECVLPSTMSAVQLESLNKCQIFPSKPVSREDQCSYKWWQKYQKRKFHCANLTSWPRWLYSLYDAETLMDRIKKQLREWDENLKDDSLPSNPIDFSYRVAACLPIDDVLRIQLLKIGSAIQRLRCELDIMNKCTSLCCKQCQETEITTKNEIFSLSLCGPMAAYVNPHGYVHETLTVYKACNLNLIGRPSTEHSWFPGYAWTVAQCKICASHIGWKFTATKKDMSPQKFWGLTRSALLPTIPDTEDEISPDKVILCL
Assay: Induction of CRBN-mediated Bcl-2 degradation in human HeLa cells assessed as relative abundance at 1 uM after 12 hrs by Western blot analysis (reference value: 1)
Format: cell-based
Form rule: numeric answer, no unit written next to it.

Previously resolved entries follow.
N#CC1=C(NCCC(=O)NCCCCNc2cccc3c2C(=O)N(C2CCC(=O)NC2=O)C3=O)c2ccc(Sc3ccc(Br)cc3)c3cccc(c23)C1=O (centres undefined) : 1
N#CC1=C(NCCC(=O)O)c2ccc(Sc3ccc(Br)cc3)c3cccc(c23)C1=O : 1.3

Kindly review the next molecule as well.
Quick note, fold change (FC) for O=C(CCCCC(=O)NCCN1C(=O)c2cccc3c(Sc4ccc(Br)cc4)ccc(c23)C1=O)NCCNc1cccc2c1C(=O)N(C1CCC(=O)NC1=O)C2=O (centres undefined) landed at 1

* * *

Listing of recorded log10 of IC50 by entry.
Biological target: Apoptosis regulator Bcl-2 (Homo sapiens, UniProt P10415)
Assay: Inhibition of biotinylated Bim peptide (81 to 106 residues) binding to His-tagged human Bcl-2 expressed in Escherichia coli BL21 (DE3) cells preincubated for 1 hr followed by biotinylated Bim peptide addition measured after 2 hrs by ELISA
Form field - Quantity: IC50; Unit: µM; Scale: log10

Previously resolved entries follow.
N#CC1=C(NCCC(=O)NCCCCCCNc2cccc3c2C(=O)N(C2CCC(=O)NC2=O)C3=O)c2ccc(Sc3ccc(Br)cc3)c3cccc(c23)C1=O (stereo not given) : 0.29
O=C(CCCCC(=O)NCCN1C(=O)c2cccc3c(Sc4ccc(Br)cc4)ccc(c23)C1=O)NCCCCCCNc1cccc2c1C(=O)N(C1CCC(=O)NC1=O)C2=O (stereo not given) : -0.27
N#CC1=C(NCCC(=O)NCCNc2cccc3c2C(=O)N(C2CCC(=O)NC2=O)C3=O)c2ccc(Sc3ccc(Br)cc3)c3cccc(c23)C1=O (stereo not given) : 1.02
N#CC1=C(C#N)c2ccc(Sc3ccc(Br)cc3)c3cccc(c23)C1=O : 0.36
O=C(CCCCC(=O)NCCN1C(=O)c2cccc3c(Sc4ccc(Br)cc4)ccc(c23)C1=O)NCCCCCCCCNc1cccc2c1C(=O)N(C1CCC(=O)NC1=O)C2=O (stereo not given) : 0.88

Quick note, log10 of IC50 for O=C(CCCCC(=O)NCCN1C(=O)c2cccc3c(Sc4ccc(Br)cc4)ccc(c23)C1=O)NCCNc1cccc2c1C(=O)N(C1CCC(=O)NC1=O)C2=O (stereo not given) landed at 1.18

Quick note, log10 of IC50 for N#CC1=C(NCCC(=O)NCCCCNc2cccc3c2C(=O)N(C2CCC(=O)NC2=O)C3=O)c2ccc(Sc3ccc(Br)cc3)c3cccc(c23)C1=O (stereo not given) landed at 0.99

Quick note, log10 of IC50 for COC(=O)CCCCC(=O)NCCN1C(=O)c2cccc3c(Sc4ccc(Br)cc4)ccc(c23)C1=O landed at 0.68

Quick note, log10 of IC50 for COC(=O)CCNC1=C(C#N)C(=O)c2cccc3c(Sc4ccc(Br)cc4)ccc1c23 landed at 0.66

Quick note, log10 of IC50 for N#CC1=C(NCCC(=O)NCCOCCOCCNc2cccc3c2C(=O)N(C2CCC(=O)NC2=O)C3=O)c2ccc(Sc3ccc(Br)cc3)c3cccc(c23)C1=O (stereo not given) landed at 0.35
